- MEASURED_ON: Human recombinant PDE2A (hPDE2A) (Homo sapiens)
- Construct: made in house; host or cells: Sf9 insect cells (baculovirus)
- Sequence (O00408 whole entry): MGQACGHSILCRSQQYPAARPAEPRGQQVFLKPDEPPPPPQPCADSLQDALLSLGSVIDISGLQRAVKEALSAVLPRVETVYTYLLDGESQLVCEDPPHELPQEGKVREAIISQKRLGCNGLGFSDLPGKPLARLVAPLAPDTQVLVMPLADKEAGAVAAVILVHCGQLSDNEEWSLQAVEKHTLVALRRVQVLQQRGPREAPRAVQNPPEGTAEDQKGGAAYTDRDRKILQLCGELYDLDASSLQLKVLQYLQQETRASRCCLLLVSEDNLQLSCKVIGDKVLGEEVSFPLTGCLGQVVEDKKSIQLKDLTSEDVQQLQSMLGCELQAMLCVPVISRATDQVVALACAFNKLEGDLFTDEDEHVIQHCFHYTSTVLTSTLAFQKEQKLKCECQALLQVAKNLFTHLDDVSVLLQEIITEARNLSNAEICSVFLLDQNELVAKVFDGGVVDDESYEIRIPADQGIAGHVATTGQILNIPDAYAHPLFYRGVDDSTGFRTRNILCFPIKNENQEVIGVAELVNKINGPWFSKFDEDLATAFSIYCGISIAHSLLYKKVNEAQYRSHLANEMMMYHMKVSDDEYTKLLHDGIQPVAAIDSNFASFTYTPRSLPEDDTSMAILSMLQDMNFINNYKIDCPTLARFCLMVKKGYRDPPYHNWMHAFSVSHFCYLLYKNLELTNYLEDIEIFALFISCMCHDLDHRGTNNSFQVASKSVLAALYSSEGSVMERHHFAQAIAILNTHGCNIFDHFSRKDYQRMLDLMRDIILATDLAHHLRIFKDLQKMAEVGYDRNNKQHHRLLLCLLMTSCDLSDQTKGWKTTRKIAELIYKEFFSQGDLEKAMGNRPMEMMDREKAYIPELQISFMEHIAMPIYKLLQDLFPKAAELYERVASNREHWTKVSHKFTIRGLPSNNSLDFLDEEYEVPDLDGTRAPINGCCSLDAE
- EXPERIMENT_DESCRIPTION: In vitro assay PDE2A (SPA, 3H-cGMP)
- Type: biochemical
- CONDITION_CONTEXT: read-out: pIC50 PDE2 (converted)
Response field label takes t when IC50 is strictly below 8 nM and f in all other cases.

Solved cases (10 shown):
1. Cc1nc2ccc(CN3CCOCC3)cc2n2c(-c3cncc(OCCCF)c3)nnc12 = f
2. Cc1nc2ccc(Br)cc2n2c(-c3cccc(Cl)c3Cl)nnc12 = f
3. Cc1nc2ccc(NCCN3CCOCC3)cc2n2c(-c3ccccc3Cl)nnc12 = t
4. Cc1nc2ccc(C(O)C(F)(F)F)cc2n2c(-c3ccccc3Cl)nnc12 (stereo not shown) = t
5. COc1cncc(-c2nnc3c(C)nc4ccc(C(F)(F)F)cc4n23)c1 = f
6. COCCCc1cncc(-c2nnc3c(C)nc4ccc(CN5CCOCC5)cc4n23)c1 = f
7. CCCCOc1cncc(-c2nnc3c(C)nc4ccc(CN5CCC(F)CC5)cc4n23)c1 = f
8. COc1ccc2nc(C)c3nnc(-c4ccccc4Cl)n3c2c1 = t
9. Cc1nc2ccc(N3CCN(C)CC3)cc2n2c(-c3cc(OC(C)C)ccc3Cl)nnc12 = f
10. CCOCc1ccc2nc(C)c3nnc(-c4ccccc4)n3c2c1 = f

Is IC50 of Cc1ncccc1-c1nnc2c(C)nc3ccc(CN4CCOCC4)cc3n12 strictly below 8 nM?
f

Cool, now Cc1nc2ccc(CN3CCOC(CCF)C3)cc2n2c(-c3ccccc3Cl)nnc12 (stereo not shown)
f

Would you kindly repeat that for Cc1nc2ccc(C(=O)NCc3cc(F)ccn3)cc2n2c(-c3ccccc3Cl)nnc12 ?
t

Would you kindly repeat that for Cc1nc2ccc(C(N3CCOCC3)C(F)(F)F)cc2n2c(-c3ccccc3Cl)nnc12 (stereo not shown) ?
t

Okay, and Cc1nc2ccc(C(=O)NCCN3CCCCC3)cc2n2c(-c3ccccc3Cl)nnc12 ?
t

Another molecule to check: CCNC(=O)c1ccc2nc(C)c3nnc(-c4ccccn4)n3c2c1
f

Data credit: patent US10604523B2
